test: M. tuberculosis growth inhibition, HTS (AID 449762);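 also: bacterial growth assessed after seven days of incubation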; conditions: M. tuberculosis H37Rv growth inhibition, 7H9 media; at 25 µM; hits give high values
The whole screen tested about 330,000 compounds, of which about 1,900 (0.58%) were called active. Roughly 4% stayed inconclusive and do not appear here. A selection follows. Entries with a potency or affinity are not part of this list.
value_kind: inhibition (%)
One number for each entry, in %.

Some molecules with recorded inhibition:
O=C(CSc1cccc2cccnc12)Nc1cccc(S(=O)(=O)N2CCOCC2)c1; -4.53
Cc1ccc(NC(=O)CSc2nc(N)cc(=O)[nH]2)cc1S(=O)(=O)N1CCCCCC1; -1.26
Cc1cccc(NC(=O)CSc2cccc3cccnc23)c1; -1.29

Please give inhibition for each item listed below.
1. Cc1ccc(N(CC(O)CN2C(=O)NC(C)(C)C2=O)S(=O)(=O)c2ccc([N+](=O)[O-])cc2)cc1 (centres undefined)
2. COc1ccc(NC(=O)CCl)cn1

Out:
1. 0.97
2. 55.6
